System tested: EGFR (form in the assay not stated) (human, UniProt P00533 25-645, limits assumed)
Test summary: ELISA, NEM conjugate 100 nM
Measure name: binding ratio vs parent P54AR4-83v2 (ratio)
One number for each entry, in ratio.

| Binder | binding ratio vs parent P54AR4-83v2, ratio |
| --- | --- |
| P54AR4-83v2 S30C, NEM conjugate (designed binder, NEM on Cys 30, His-tagged) LPAPKNLVVSEVTEDSARLSWDDPWAFYECFLIQYQESEKVGEAIVLTVPGSERSYDLTGLKPGTEYTVSIYGVHNVYKDTNMRGLPLSAIFTT | 1.02 |
| P54AR4-83v2 G42C, NEM conjugate (designed binder, NEM on Cys 42, His-tagged) LPAPKNLVVSEVTEDSARLSWDDPWAFYESFLIQYQESEKVCEAIVLTVPGSERSYDLTGLKPGTEYTVSIYGVHNVYKDTNMRGLPLSAIFTT | 0.99 |
| P54AR4-83v2 D22C, NEM conjugate (designed binder, NEM on Cys 22, His-tagged) LPAPKNLVVSEVTEDSARLSWCDPWAFYESFLIQYQESEKVGEAIVLTVPGSERSYDLTGLKPGTEYTVSIYGVHNVYKDTNMRGLPLSAIFTT | 1.02 |

Query block: Specify measured binding ratio vs parent P54AR4-83v2 for P54AR4-83v2 L7C, NEM conjugate (designed binder, NEM on Cys 7, His-tagged) LPAPKNCVVSEVTEDSARLSWDDPWAFYESFLIQYQESEKVGEAIVLTVPGSERSYDLTGLKPGTEYTVSIYGVHNVYKDTNMRGLPLSAIFTT .
Result block: 1
